Target: CDK2/Cyclin E1 full length (Homo sapiens (Human), UniProt P24941)
Assay: CDK2/Cyclin E1 full length mobility shift assay
VALUE_TYPE: pKi
Note on units: pKi is unitless, being -log10 of a concentration expressed in mol/L.

Lab book: pKi of Cc1cnc(CC(=O)Nc2cc([C@H]3CC[C@@H](OC(=O)N(C)C(C)C)C3)[nH]n2)o1 noted as 8.84

Lab book: pKi of Cc1cc(CC(=O)Nc2cc([C@H]3CC[C@@H](OC(=O)N4[C@H](C)C[C@@H]4C)C3)[nH]n2)on1 noted as 8.72

Lab book: pKi of COCc1cc(C(=O)Nc2cc([C@H]3CC[C@@H](OC(=O)NCCC(F)(F)F)C3)[nH]n2)n(C)n1 noted as 8.86

Lab book: pKi of Cn1ccc(CC(=O)Nc2cc([C@H]3CC[C@@H](OC(=O)N4CCCC4(C)C)C3)[nH]n2)n1 [Example 639] noted as 9.33

Lab book: pKi of CCCNC(=O)O[C@@H]1CC[C@H](c2cc(NC(=O)Cc3cc(C)no3)n[nH]2)C1 noted as 8.96

Lab book: pKi of O=C(Cc1ccc(C(F)(F)F)nc1)Nc1cc([C@@H]2CC[C@H](OC(=O)NCC3CCOCC3)C2)[nH]n1 noted as 8.56

Lab book: pKi of CN1CC(CNC(=O)O[C@H]2CC[C@@H](c3cc(NC(=O)Cc4cc(F)cc(F)c4)n[nH]3)C2)OCC1=O (single isomer, unassigned) [Example 584] noted as 8.42

Lab book: pKi of CC[C@H](C)NC(=O)O[C@@H]1CC[C@H](c2cc(NC(=O)Cc3ccnn3C)n[nH]2)C1 noted as 8.93

Data origin: patent US11014911B2
